Target: IKZF1 (dCK*-IKZF1 fusion in HEK293FT)
Test: inhibition of IKZF1 HTRF signal (DMSO = 0%, pomalidomide 10 uM = 100%); higher = lower IKZF1 protein level
Conditions: compound concentration: 5 uM, overnight (~20 h)
test readout: inhibition of IKZF1 HTRF signal

molecule: O=C1NC(=O)/C(=C/c2ccc(-c3ccc(F)cc3O)o2)S1
inhibition of IKZF1 HTRF signal: -15.8%
--
molecule: COc1cc(NS(=O)(=O)c2ccc(N)cc2)ncn1
inhibition of IKZF1 HTRF signal: -31.4%

With those in mind, consider the next molecule.
Input line: Quick one: inhibition of IKZF1 HTRF signal of CC(NCCC(c1ccccc1)c1ccccc1)c1ccccc1 (centres undefined) [fendiline] ?
Output line: -38%

----------
Each entry below lists one item and its recorded relative growth in counter assay value.
System: HEK293FT dCK*-only
Assay: relative growth in counter assay (no AraC = 100%, AraC + DMSO = 0%); higher = more growth rescue independent of IKZF1
Details: compound concentration: 5 uM; AraC concentration: 0.3 uM; overnight pretreatment + 4 days AraC
Value expressed in %; do not type the unit.

compound: COC(=O)Nc1nc2cc(C(=O)c3ccccc3)ccc2[nH]1
tested target: HEK293FT dCK*-only
relative growth in counter assay [%]: -30.6
//
compound: Nc1cc(N2CCCCC2)nc(N)[n+]1[O-]
tested target: HEK293FT dCK*-only
relative growth in counter assay [%]: -5.79
//
compound: COc1cc(NS(C)(=O)=O)ccc1Nc1c2ccccc2nc2ccccc12
tested target: HEK293FT dCK*-only
relative growth in counter assay [%]: -35.1

Input line: Quick one: relative growth in counter assay of `Cc1cc(C2CCCCC2)n(O)c(=O)c1` ?
Output line: -31.2

Input line: Also check `COc1ccc(CCN(C)CCc2ccc(OC)c(OC)c2)cc1OC`
Output line: 5.51

Input line: Also check CC(C)(C)C1CCc2c(sc(NC(=O)c3ccco3)c2C(=O)O)C1 (centres undefined)
Output line: -8.81

Input line: Also check Clc1ccc(COC(Cn2ccnc2)c2ccc(Cl)cc2Cl)cc1 (centres undefined) [Econazole Nitrate]
Output line: 3.6

Input line: Also check `COC1=C2C[C@@H](C)C[C@H](OC)[C@H](O)[C@@H](C)/C=C(\C)[C@H](OC(N)=O)[C@@H](OC)/C=C\C=C(/C)C(=O)NC(=CC1=O)C2=O`
Output line: -32.6

Input line: Also check `Oc1c(Cl)cc(Cl)c(Cl)c1Cc1c(O)c(Cl)cc(Cl)c1Cl`
Output line: -1.16

----------
Tested on: HEK293FT dCK*-IKZF1
Assay: relative growth recovery (pomalidomide 10 uM = 100%, DMSO = 0%); higher = more growth rescue (IKZF1 fusion degradation)
Settings: compound concentration: 5 uM; AraC concentration: 0.3 uM; overnight pretreatment + 4 days AraC
test readout: relative growth recovery (%)
Value expressed in %; do not type the unit.

Take a look at these entries with their results.
compound: O=C(Nc1nc(-c2cc(Cl)cs2)c(N2CCN(C3CCCCC3)CC2)s1)c1cnc(N2CCC(C(=O)O)CC2)c(Cl)c1
unit text: %
relative growth recovery: 1.31
//
compound: Nc1c2ccccc2nc2ccccc12
unit text: %
relative growth recovery: -14
//
compound: Oc1cc2c(cc1O)[C@@H]1c3ccc(O)c(O)c3OC[C@]1(O)C2 [Hematoxylin (Hydroxybrazilin)]
unit text: %
relative growth recovery: -1.47
//
compound: COc1ccc(CN2C(=O)C(=O)c3cc(OC(F)(F)F)ccc32)cc1
unit text: %
relative growth recovery: -11.5

With those in mind, consider the next compound.
Input line: Quick one: relative growth recovery of `C=CC(=O)c1ccc2ccccc2c1` ?
Output line: 0.695

----------
Biological target: IKZF1 (dCK*-IKZF1 fusion in HEK293FT)
Test: inhibition of IKZF1 HTRF signal (DMSO = 0%, pomalidomide 10 uM = 100%); higher = lower IKZF1 protein level
Conditions: compound concentration: 5 uM, overnight (~20 h)
Counter-ions that a name gives are not always drawn.
test readout: inhibition of IKZF1 HTRF signal (%)
Value expressed in %; do not type the unit.

Take a look at these entries with their results.
compound: Nc1ncnc2c1ncn2[C@@H]1O[C@H](COP(=O)(O)OP(=O)(O)OP(=O)(O)OP(=O)(O)OC[C@H]2O[C@@H](n3cnc4c(N)ncnc43)C(O)C2O)C(O)C1O (stereo partly specified) [P1,P4-DI(adenosine-5')tetraphosphate ammonium salt]
tested target: IKZF1 (dCK*-IKZF1 fusion in HEK293FT)
test readout: inhibition of IKZF1 HTRF signal
unit text: %
readout value: -38

compound: CC[C@]1(O)C[C@H]2CN(CCc3c([nH]c4ccccc34)[C@@](C(=O)OC)(c3cc4c(cc3OC)N(C=O)[C@H]3[C@@](O)(C(=O)OC)[C@H](OC(C)=O)[C@]5(CC)C=CCN6CC[C@]43[C@@H]65)C2)C1 [Vincristine Sulfate]
tested target: IKZF1 (dCK*-IKZF1 fusion in HEK293FT)
test readout: inhibition of IKZF1 HTRF signal
unit text: %
readout value: 33.3

compound: O=C1CC[C@H](N2Cc3cc(N4CCN(CC5CCN(c6ccc([C@@H]7c8ccc(O)cc8CC[C@@H]7c7ccccc7)cc6)CC5)CC4)ccc3C2=O)C(=O)N1
tested target: IKZF1 (dCK*-IKZF1 fusion in HEK293FT)
test readout: inhibition of IKZF1 HTRF signal
unit text: %
readout value: -15.2

compound: COc1ccc(Cl)cc1C(=O)NCCc1ccc(S(=O)(=O)NC(=O)NC2CCCCC2)cc1
tested target: IKZF1 (dCK*-IKZF1 fusion in HEK293FT)
test readout: inhibition of IKZF1 HTRF signal
unit text: %
readout value: -51.9

compound: COC(=O)c1c(C)[nH]c(C)c1C(=O)c1ccccc1Cc1ccccc1
tested target: IKZF1 (dCK*-IKZF1 fusion in HEK293FT)
test readout: inhibition of IKZF1 HTRF signal
unit text: %
readout value: -37.4

With those in mind, consider the next compound.
Input line: Quick one: inhibition of IKZF1 HTRF signal of `Nc1cc(N2CCCCC2)nc(N)[n+]1[O-]` ?
Output line: -27.1

----------
Molecular target: IKZF1 (dCK*-IKZF1 fusion in HEK293FT)
Test: inhibition of IKZF1 HTRF signal (DMSO = 0%, pomalidomide 10 uM = 100%); higher = lower IKZF1 protein level
Settings: compound concentration: 5 uM, overnight (~20 h)
Each entry below lists one item and its recorded inhibition of IKZF1 HTRF signal value.
Value expressed in %; do not type the unit.

Take a look at these entries with their results.
smiles record: C[C@H]1COC2=C1C(=O)C(=O)c1c2ccc2c1CCCC2(C)C
readout value: -30.9
--
smiles record: Cc1noc(C)c1-c1ccc(-c2cc(C(N)=O)c(NC(N)=O)s2)c(O[C@H]2CCNC2)c1
readout value: -26
--
smiles record: Cc1ccnc(NS(=O)(=O)c2ccc(N)cc2)n1
readout value: -32.2
--
smiles record: O=C(Nc1cc(C(F)(F)F)cc(C(F)(F)F)c1)Nc1c(Br)cc(Br)cc1-c1nnn[nH]1
readout value: -17

Input line: Quick one: inhibition of IKZF1 HTRF signal of `CCCCNC(=O)NS(=O)(=O)c1ccc(C)cc1` ?
Output line: -29.8

----------
Biological target: IKZF1 (dCK*-IKZF1 fusion in HEK293FT)
Test: inhibition of IKZF1 HTRF signal (DMSO = 0%, pomalidomide 10 uM = 100%); higher = lower IKZF1 protein level
Settings: compound concentration: 5 uM, overnight (~20 h)
Where a name gives a salt, the structure may show the parent alone.
test readout: inhibition of IKZF1 HTRF signal (%)
Value expressed in %; do not type the unit.

Take a look at these entries with their results.
compound: O=C(O)c1ccccc1-c1c2cc(I)c(=O)c(I)c-2oc2c(I)c(O)c(I)cc12
inhibition of IKZF1 HTRF signal / %: 23.2
//
compound: COc1cccc2c1C(=O)c1c(O)c3c(c(O)c1C2=O)C[C@@](O)(C(=O)CO)C[C@@H]3O[C@H]1C[C@H](N)[C@H](O[C@@H]2CCCCO2)[C@H](C)O1 [Pirarubicin]
inhibition of IKZF1 HTRF signal / %: 37.3
//
compound: Cc1ccc2c(Cl)cc(Cl)c(O)c2n1
inhibition of IKZF1 HTRF signal / %: 14
//
compound: COc1ccc(-c2ccc3ncc4c(c3c2)n(-c2ccc(N3CCNCC3)c(C(F)(F)F)c2)c(=O)n4C)cn1
inhibition of IKZF1 HTRF signal / %: 88.1

With those in mind, consider the next compound.
Input line: Quick one: inhibition of IKZF1 HTRF signal of CC[C@]1(O)C[C@H]2CN(CCc3c([nH]c4ccccc34)[C@@](C(=O)OC)(c3cc4c(cc3OC)N(C)[C@H]3[C@@](O)(C(=O)OC)[C@H](OC(C)=O)[C@]5(CC)C=CCN6CC[C@]43[C@@H]65)C2)C1 [Vinblastine Sulfate] ?
Output line: -11.7
